Molecular target: kinase panel containing either 386 or 392 distinct kinases
Assay: Kinase selectivity score S10 from competition binding panel
Settings: 10 μM, panel of 386 or 392 distinct kinases
EXPERIMENTAL_ENDPOINT: Kinase specificity S(10)

Example entries and their recorded answers appear below.
{"CHEMICAL_SMILES": "CN1CCN(c2ccc3ncc(Cc4ccc5nc(N[C@@H]6CCCC[C@H]6O)sc5c4)n3n2)CC1", "MEASUREMENT": "B (0.01<B≤0.02)"}
{"CHEMICAL_SMILES": "CNC(=O)c1ccc2c(c1)ncn2Cc1ccc2nc(N[C@@H]3CCCC[C@H]3O)sc2c1", "MEASUREMENT": "B (0.01<B≤0.02)"}
{"CHEMICAL_SMILES": "O[C@@H]1CCCC[C@H]1Nc1nc2ccc(Cn3cnc4cnc(C(F)(F)F)nc43)cc2s1", "MEASUREMENT": "A (A≤0.01)"}
{"CHEMICAL_SMILES": "O[C@@H]1CCCC[C@H]1Nc1nc2ccc(Cn3cnc4cc(-n5cccn5)ccc43)cc2s1", "MEASUREMENT": "A (A≤0.01)"}
{"CHEMICAL_SMILES": "C=C(c1ccc2c(c1)ncn2Cc1ccc2nc(N[C@@H]3CCCC[C@H]3O)sc2c1)C(F)(F)F", "MEASUREMENT": "A (A≤0.01)"}

Which Kinase specificity S(10) is reported with kinase panel containing either 386 or 392 distinct kinases for this entry: `C=Cc1cc(F)c2c(c1)ncn2Cc1ccc2nc(N[C@@H]3CCCC[C@H]3O)sc2c1` ? B (0.01<B≤0.02)

Please answer likewise for `Cn1nnnc1-c1cnc2c(c1)ncn2Cc1ccc2nc(N[C@@H]3CCCC[C@H]3O)sc2c1` A (A≤0.01)

Please answer likewise for `CS(=O)(=O)c1ccc2ncn(Cc3ccc4nc(N[C@@H]5CCCC[C@H]5O)sc4c3)c2n1` A (A≤0.01)

Where these numbers come from: patent US9938261B2
